System: NCI-H226 lung
assay.overview: NCI-60 one-dose screen, 48 h (100 = growth as untreated, 0 = no growth, -100 = all killed)
particulars: 10 µM unless noted
The panel holds about 83,000 compounds, 20% with a hit somewhere; the sample as a whole holds those more often.
endpoint.label: growth (%)
# value in %; strip the unit string

Query string: Request the reported growth associated with CNC(=O)c1ccccc1Nc1nc(Nc2ccc3c(c2OC)CCC[C@H](N2CCN(CCO)CC2)C3)ncc1Cl
Result string: 28.6

Query string: Now the compound CC/C(=C(\c1ccc(OCCN2CCCCCCC2)cc1)c1ccc(OC(=O)C2CCCCC2)cc1)c1ccc(Cl)cc1
Result string: 100

Query string: Also O=c1sn(-c2cccc3ccccc23)c(=O)n1Cc1ccccc1 , if possible.
Result string: 96.8

Query string: Same for O=C1C=CC2(NN=C(c3ccccc3)N2c2ccc(Cl)cc2)c2cccc(O)c21 (centres undefined)
Result string: 60.5

Query string: Next compound up: CC(=Nc1ccccc1)C1=C(O)C(Cc2ccccc2)NC1=O (centres undefined)
Result string: 15.4

Query string: Similarly, N#Cc1ccc(-n2nnc3ccccc32)cc1C#N ?
Result string: 96.7

Query string: Same thing, different compound: COc1cc2c(Oc3ccc4[nH]c(C)cc4c3F)ncnc2cc1OCCCN1CCCC1
Result string: 57.3

Query string: Entry to check: Nc1nc(Nc2ccccc2)c(C=Nc2ccccc2)c(=O)[nH]1
Result string: 86.5

Query string: Same question for Cc1csc(-c2nnc(Nc3ccc(Oc4ncccc4-c4ccnc(N)n4)cc3)c3ccccc23)c1 please.
Result string: 72.5

Query string: Next entry: O=C1CC(c2ccc(Cl)cc2)c2ncn(-c3cccc(Cl)c3)c2N1 (centres undefined)
Result string: 71

Query string: Thanks! And COc1ccc2c(CCCc3ccc(Cl)cc3Cl)c3[n+](cc2c1OC)CCc1cc2c(cc1-3)OCO2 ?
Result string: 14.6

Query string: Repeat for the following compound: Cc1c(N)ccc(-c2ccc(N)c(C)c2S(=O)(=O)O)c1S(=O)(=O)O
Result string: 111

Query string: Ok, now Cc1ccc(-c2nc3ccc(Cl)cn3c2NC2CCCCC2)o1
Result string: 84.5

Query string: Cool, now Cc1ccsc1C(NC(=O)c1ccccc1)c1cc(Cl)c2cccnc2c1O (centres undefined)
Result string: 38.5

Query string: Also check C=CCCCOC1[C@H](OCc2ccccc2)C(OCc2ccccc2)C(OC)O[C@@H]1CNC(=O)c1cccc(I)c1 (some centres undefined)
Result string: 66.5

Query string: Consider next the compound C=CCN1C(=O)c2cccc3c(-c4ccc5c(c4)ncn5C4CCCCC4)ccc(c23)C1=O in the same way.
Result string: 44.8

Query string: Next compound: CCOc1cc2ncc(C#N)c(Nc3ccc(F)c(Cl)c3)c2cc1NC(=O)/C=C/CN(C)C
Result string: -56.5

Query string: Query CC(C)c1cc(CNc2nc(Nc3cc(C4CC4)[nH]n3)cc(N3CCN(C)CC3)n2)on1 next
Result string: -3.34

Query string: Another compound to look at: C=CC(=O)N1CCC(Oc2cc3c(Nc4ccc(Cl)c(Cl)c4F)ncnc3cc2OC)CC1
Result string: 34.9

Query string: Next compound up: CN1CC[C@@H](c2c(O)cc(O)c3c(=O)cc(-c4ccccc4Cl)oc23)[C@@H]1CO
Result string: 7.7

Query string: Same again, this time with CCNC(=O)C#Cc1ccc2c(C(=Nc3ccc(CN(C)C)cc3)c3ccccc3)c(O)[nH]c2c1
Result string: 38.6

Query string: Next compound up: C[N+](C)(CCOC(c1ccccc1)c1ccccc1)CC(=O)OCc1ccccc1
Result string: 91.8

Query string: Same again, this time with Cc1ccccc1Nc1nc2nonc2nc1Nc1cccc(C)c1C
Result string: 48.6

Query string: Same question for Cc1cnc(Nc2ccc(OCCN3CCCC3)cc2)nc1Nc1cccc(S(=O)(=O)NC(C)(C)C)c1 please.
Result string: -61.9

Query string: And what about the compound Cn1cnc(-c2cc3nccc(Oc4ccc(NC(=S)NC(=O)Cc5ccccc5)cc4F)c3s2)c1 ?
Result string: 54.5

Query string: What do you get for Oc1ccc(C(c2ccc(O)cc2)C(Cl)(Cl)Cl)cc1 ?
Result string: 104

Query string: Check COc1ccc(C(=O)N2c3ccccc3Sc3ccccc32)c(F)c1 too.
Result string: 46.1

Query string: Next: Cc1cn(-c2cc(NC(=O)c3ccc(C)c(Nc4nccc(-c5cccnc5)n4)c3)cc(C(F)(F)F)c2)cn1
Result string: 67.1

Query string: Param item: Cc1cc(O)c2c(c1)C1OC(=O)CCCCCN1C1=C2C(=O)c2cccc(OC3CC(O)C(O)C(C)O3)c2C1=O (centres undefined)
Result string: 118
